The measurements presented in this section are drawn from ChEMBL document CHEMBL3507680.

cytotoxicity at 70.5 h overview
experiment: Human HepG2 cell viability assay in 384 well format; format: toxicity, cell-based; parameters: dose 125 nL, time 70.5 hour; concentration not given beside the values; conditions: HepG2 cells, read-out: Inhibition

Noted for "CC1(C)Cc2ccc(C(=O)NC3CCOCC3)c(O)c2O1" : its cytotoxicity at 70.5 h reads 7.2%

----------
experiment: Human HepG2 cell viability assay in 384 well format; type: toxicity, cell-based; design: dose 125 nL, time 70.5 hour; concentration not given beside the values; settings: HepG2 cells, read-out: Inhibition
cytotoxicity at 70.5 h overview
Reply numerically in %, unit not repeated.

# example entries with known answers
Cc1cnccc1-c1cc(NCCO)nc2[nH]ccc12 | 14.2
O=C(c1ccc(-n2cccn2)nc1)N1CCCC(c2cnccn2)C1 (centres undefined) | -4.09
Cc1occc1C(=O)N1CCCN(Cc2cnn(C(C)C)c2)CC1 | -6.65

Now for the molecule whose cytotoxicity at 70.5 h we want.
Noted for "CN(C)Cc1noc2c1CN(C(=O)c1ccncc1)CC2" : its cytotoxicity at 70.5 h reads 5.83
